System: PRMT1 (protein arginine N-methyltransferase 1)
Experiment: PRMT1 binders on small-molecule microarrays, primary screen, biochemical, small-molecule microarray, 635 nm fluorescence (AID 1088);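 note: binding of Prmt1 protein to compounds spotted on small-molecule microarray slides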
Conditions: small-molecule microarray binding, higher = more signal
composite z-score vs 1: at or above is TRUE, below is FALSE.

See these solved cases before continuing.
• Cc1nc2cc(Br)ccc2c(=O)n1Cc1cccc(O)c1 = TRUE
• O=C(O)[C@H]1C[C@H]2C(=O)N[C@@H](Cc3ccccc3)C(=O)N2[C@H]1c1cccc(OCCO)c1 = TRUE

Exam item: decide whether the reported composite z-score for "COCCOC(=O)N1C(=O)[C@@]2(c3cc(C#CC4=CCCCC4)ccc31)[C@H](C(=O)N1CCCCCCC1)[C@H]1C(=O)O[C@H](c3ccccc3)[C@H](c3ccccc3)N1[C@@H]2c1ccc(OCCO)cc1" is at least 1. TRUE

Is reported composite z-score greater than or equal to 1 here: CC(C)C[C@@H]1NC(=O)CNC(=O)[C@@]23C(=O)N[C@@H](Cc4ccccc4)C2[C@H](C)[C@@]2(C)O[C@H]2C3/C=C/C/C=C\CNC1=O (some centres not stated) TRUE

Decide: is the reported value of composite z-score for COc1cc(NN2C(C(O)c3ccc(I)cc3)C=CC3C(=O)N(c4ccccc4)C(=O)C32)cc(OC)c1OC (configuration not stated) equal to or greater than 1? TRUE

Check this molecule for composite z-score at or above 1: C=CCC(OC(C)=O)[C@@H]1[C@@H](N(Cc2ccc(-c3cccc(C(F)(F)F)c3)o2)C(=O)c2cccc3ccccc23)c2cc(OCCCO)ccc2N1C(=O)Cc1ccc(OC)cc1 (some centres not stated) FALSE

Record C=CCC(OC(C)=O)[C@@H]1[C@@H](N(Cc2cccc3ccccc23)C(=O)c2ccc(-c3ccccc3)cc2)c2cc(OCCCO)ccc2N1C(=O)c1ccc(-c2ccccc2)cc1 (some centres not stated) ; criterion: composite z-score no lower than 1. Met? FALSE
